Target: human ABCG2 protein (Homo sapiens, UniProt Q9UNQ0)
Construct: host or cells: MDCKII (SB MDCKII-BCRP cell line)
Sequence (Q9UNQ0 whole entry): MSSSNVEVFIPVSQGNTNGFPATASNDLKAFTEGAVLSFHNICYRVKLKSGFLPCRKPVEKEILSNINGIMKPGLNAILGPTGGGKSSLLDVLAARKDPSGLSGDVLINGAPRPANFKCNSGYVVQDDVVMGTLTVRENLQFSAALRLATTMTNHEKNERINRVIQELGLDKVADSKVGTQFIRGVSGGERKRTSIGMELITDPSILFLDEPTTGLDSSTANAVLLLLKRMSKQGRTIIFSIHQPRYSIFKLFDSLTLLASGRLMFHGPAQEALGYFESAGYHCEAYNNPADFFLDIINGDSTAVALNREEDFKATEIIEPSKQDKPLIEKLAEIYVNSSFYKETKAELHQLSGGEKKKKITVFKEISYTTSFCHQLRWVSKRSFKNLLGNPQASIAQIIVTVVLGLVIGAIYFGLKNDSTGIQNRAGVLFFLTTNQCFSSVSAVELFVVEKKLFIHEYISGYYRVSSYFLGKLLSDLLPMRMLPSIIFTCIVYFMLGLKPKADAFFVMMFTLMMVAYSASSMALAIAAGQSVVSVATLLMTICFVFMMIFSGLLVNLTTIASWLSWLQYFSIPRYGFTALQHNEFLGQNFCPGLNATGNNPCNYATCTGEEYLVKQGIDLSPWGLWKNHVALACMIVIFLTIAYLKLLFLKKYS
Experiment: Polyphenol accumulation in SB MDCKII-BCRP cells with/without Ko143, APB conjugate fluorescence (substrate verification)
Assay type: cell-based
Details: relative difference between fluorescence values with/without 10 µM Ko143; 20 µM compound
metric: transport capacity

O=c1cc(-c2ccc(O)c(O)c2)oc2cc(O)cc(O)c12 [Compound 3, luteolin]	highest
COc1ccc(OC)c(-c2oc3ccccc3c(=O)c2O)c1 [Compound 9, 2',5'-dimethoxy-3-hydroxyflavone]	highest
O=c1c(O)c(-c2ccc(O)c(O)c2)oc2cc(O)cc(O)c12 [Compound 1, quercetin]	highest
COc1ccc2oc(-c3ccc(OC)c(OC)c3)c(O)c(=O)c2c1 [Compound 6, 6,3',4'-trimethoxy-3-hydroxyflavone]	lowest

# next molecule below
(Q) Any idea what transport capacity was measured for O=c1c(O)c(-c2ccc(O)cc2)oc2cc(O)cc(O)c12 [Compound 2, kaempferol] ?
(A) lowest

Origin of values: patent EP3117212B1
